Biological target: Integrin alpha-IIb/beta-3 (Homo sapiens, UniProt P05106+P08514)
Sequence (P05106 27-788 limits assumed): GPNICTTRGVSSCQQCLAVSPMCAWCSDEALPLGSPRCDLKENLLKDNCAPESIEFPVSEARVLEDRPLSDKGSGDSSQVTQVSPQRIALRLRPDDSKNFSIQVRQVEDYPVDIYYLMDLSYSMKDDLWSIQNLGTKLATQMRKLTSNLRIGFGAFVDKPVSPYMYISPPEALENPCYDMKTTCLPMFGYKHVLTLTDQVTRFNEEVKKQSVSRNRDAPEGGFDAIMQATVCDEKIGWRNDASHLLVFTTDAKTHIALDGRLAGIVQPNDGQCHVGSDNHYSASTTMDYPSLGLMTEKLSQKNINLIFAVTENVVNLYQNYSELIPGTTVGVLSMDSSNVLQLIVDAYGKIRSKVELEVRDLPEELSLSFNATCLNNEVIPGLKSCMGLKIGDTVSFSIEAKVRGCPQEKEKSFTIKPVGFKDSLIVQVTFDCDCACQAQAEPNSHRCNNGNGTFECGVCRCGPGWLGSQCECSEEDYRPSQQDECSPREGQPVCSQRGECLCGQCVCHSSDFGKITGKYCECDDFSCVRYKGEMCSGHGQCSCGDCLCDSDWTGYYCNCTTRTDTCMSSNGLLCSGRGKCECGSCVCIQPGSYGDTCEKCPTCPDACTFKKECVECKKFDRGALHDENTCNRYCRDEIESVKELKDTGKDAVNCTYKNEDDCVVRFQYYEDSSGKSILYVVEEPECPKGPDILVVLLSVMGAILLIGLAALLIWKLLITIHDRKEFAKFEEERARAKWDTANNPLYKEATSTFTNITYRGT
Sequence (P08514 32-887 limits assumed): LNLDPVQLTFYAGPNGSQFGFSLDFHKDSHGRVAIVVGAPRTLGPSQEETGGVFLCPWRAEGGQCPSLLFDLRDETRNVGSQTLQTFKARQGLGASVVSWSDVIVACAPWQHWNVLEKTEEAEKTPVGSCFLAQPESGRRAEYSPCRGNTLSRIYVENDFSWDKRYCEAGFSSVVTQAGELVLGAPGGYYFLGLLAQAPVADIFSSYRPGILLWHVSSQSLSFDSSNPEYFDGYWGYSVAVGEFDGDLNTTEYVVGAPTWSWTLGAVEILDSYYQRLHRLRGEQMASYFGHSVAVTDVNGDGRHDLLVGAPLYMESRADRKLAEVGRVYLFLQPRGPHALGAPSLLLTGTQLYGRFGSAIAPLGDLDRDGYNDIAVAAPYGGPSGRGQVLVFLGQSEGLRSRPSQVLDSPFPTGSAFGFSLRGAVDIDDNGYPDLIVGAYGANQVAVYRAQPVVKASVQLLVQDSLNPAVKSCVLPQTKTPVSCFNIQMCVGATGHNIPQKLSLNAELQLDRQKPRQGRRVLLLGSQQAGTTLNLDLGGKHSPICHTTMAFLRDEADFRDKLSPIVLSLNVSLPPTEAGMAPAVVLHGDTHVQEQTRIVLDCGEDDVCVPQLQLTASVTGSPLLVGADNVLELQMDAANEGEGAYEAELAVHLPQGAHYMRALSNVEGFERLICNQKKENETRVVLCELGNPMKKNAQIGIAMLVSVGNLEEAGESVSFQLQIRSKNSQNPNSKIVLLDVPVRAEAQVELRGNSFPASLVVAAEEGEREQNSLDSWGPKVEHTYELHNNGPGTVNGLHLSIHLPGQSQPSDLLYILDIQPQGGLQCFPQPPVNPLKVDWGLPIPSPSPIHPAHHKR
Sequence (P08514 891-1039 limits assumed): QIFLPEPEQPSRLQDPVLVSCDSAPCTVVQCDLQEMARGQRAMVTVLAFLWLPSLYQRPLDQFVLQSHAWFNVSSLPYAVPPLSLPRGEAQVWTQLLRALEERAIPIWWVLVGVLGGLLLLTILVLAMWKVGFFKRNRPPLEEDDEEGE
Assay: Fibrinogen receptor binding affinity was determined by assaying for inhibition of [3H]1 binding to purified Fibrinogen Receptor isolated from human platelets and reconstituted in liposomes
pKi: −log10 of the molar value.
Rule: pKi under 6 gives Not satisfied, otherwise Satisfied.

(Q) Does the molecule CN(CCC1CCNCC1)C(=O)c1ccc2c(c1)NC(CC(=O)O)C(=O)N(CCc1ccccc1)C2 (stereo unspecified) have recorded pKi that is 6 or more?
(A) Satisfied

(Q) Does the molecule N=C(N)c1ccc(NC(=O)c2ccc3c(c2)NC(CC(=O)O)CN(CCc2ccccc2)C3)cc1 (stereo unspecified) have recorded pKi that is 6 or more?
(A) Satisfied

(Q) Kindly determine if pKi recorded for CN(C(=O)c1ccc2c(c1)CN(CC(=O)O)C(=O)CC2)c1ccc(C(=N)N)cc1 is above or exactly 6.
(A) Not satisfied

(Q) Threshold query (pKi >= 6) on N=C(N)c1ccc(NC(=O)c2ccc3c(c2)N[C@@H](CC(=O)O)C(=O)N(CCc2ccccc2)C3)cc1
(A) Satisfied

(Q) Decide: is the reported value of pKi for N=C(N)c1ccc(NC(=O)c2ccc3c(c2)N[C@H](CC(=O)O)C(=O)N(CCc2ccccc2)C3)cc1 equal to or greater than 6?
(A) Satisfied

(Q) Please indicate if the recorded pKi for O=C(O)CC1Nc2cc(/C=C/CCC3CCNCC3)ccc2CN(CCc2ccccc2)C1=O (stereo unspecified) meets or exceeds 6.
(A) Satisfied

(Q) Check the entry O=C(O)CC1Nc2cc(CCCCC3CCNCC3)ccc2CN(CCc2ccccc2)C1=O (stereo unspecified) : does pKi equal or exceed 6?
(A) Satisfied

(Q) Reported pKi reaches at least 6 for CN(C(=O)c1ccc2c(c1)CN(CCC(=O)O)C(=O)CC2)c1ccc(C(=N)N)cc1 ?
(A) Not satisfied

* * *

Molecular target: Integrin alpha-IIb/beta-3 (Homo sapiens, UniProt P05106+P08514)
Assay: Fibrinogen receptor binding affinity was determined by assaying for inhibition of [3H]1 binding to purified Fibrinogen Receptor isolated from human platelets and reconstituted in liposomes
Can you tell me Ki for the items I'm about to list?
Please state the figure in nM; there is no need to write the unit.

(Q) Return value of Ki for input N=C(N)c1ccc(C(=O)Nc2ccc3c(c2)CN(CC(=O)O)C(=O)CN3)cc1 , no commentary.
(A) 1200

(Q) Let me know recorded Ki for O=C(O)CC1Nc2cc(/C=C\CCC3CCNCC3)ccc2CN(CCc2ccccc2)C1=O (stereo not drawn) , thanks.
(A) 750

(Q) Give me measured Ki, please, for this compound: N=C(N)c1ccc(NC(=O)c2ccc3c(c2)NC(CC(=O)O)CN(CCc2ccccc2)C3=O)cc1 (stereo not drawn)
(A) 800
